Here the recorded Kp uu at 0.25 h is given for each entry.
test-summary: Rat plasma-to-brain level (PBL) cassette, brain distribution
Format: in vivo
condition-context: male, Sprague-Dawley, rat, brain / plasma, iv, 0.2 mg/kg, SD rat, 0.2 mg/kg IV, unbound brain to unbound plasma ratio

{"molecule": "Cc1nc(C)c2c(n1)sc1c(N3CCCC3)nccc12 [22k]", "value-relation-sign": "=", "Kp uu at 0.25 h": 3.43}
{"molecule": "Cc1nc(C)c2c(n1)sc1c(N3CC4(C3)CC(F)(F)C4)ncnc12 [14h]", "value-relation-sign": ">", "Kp uu at 0.25 h": 1}
{"molecule": "Cc1nc(C)c2c(n1)sc1c(N3CC4CC4C3)ncnc12 (stereo not drawn) [14i]", "value-relation-sign": ">", "Kp uu at 0.25 h": 1}
{"molecule": "Cc1nc(C)c2c(n1)sc1c(N3CCCCC3)nccc12 [22e]", "value-relation-sign": "=", "Kp uu at 0.25 h": 1.64}
{"molecule": "COc1ccc(CNc2nccc3c2sc2nc(C)nc(C)c23)cc1F [22j]", "value-relation-sign": "=", "Kp uu at 0.25 h": 1.01}
{"molecule": "Cc1nc(C)c2c(n1)sc1c(N3CCC(F)(F)C3)nccc12 [22f]", "value-relation-sign": "=", "Kp uu at 0.25 h": 2.91}

----------
The reader will find reported CLint scaled at 1 µM values listed item by item below.
test-summary: Intrinsic clearance in human liver microsomes
Assay type: in vitro ADME
condition-context: pH 7.4; human liver microsomes

{"compound": "Cc1nc(C)c2c(n1)sc1c(NCc3ccc(C(C)(C)O)cc3)nccc12 [22g]", "CLint scaled at 1 µM (mL/min/kg)": 26}
{"compound": "COc1ccc(CNc2nccc3c2sc2nc(C)nc(C)c23)cc1F [22j]", "CLint scaled at 1 µM (mL/min/kg)": 50}
{"compound": "Cc1nc(C)c2c(n1)sc1c(N3CCCCC3)nccc12 [22e]", "CLint scaled at 1 µM (mL/min/kg)": 134}
{"compound": "Cc1nc(C)c2c(n1)sc1c(N3CCC(F)(F)C3)nccc12 [22f]", "CLint scaled at 1 µM (mL/min/kg)": 148}
{"compound": "Cc1nc(C)c2c(n1)sc1c(N3CCCC3)nccc12 [22k]", "CLint scaled at 1 µM (mL/min/kg)": 124}
{"compound": "Cc1nc(C)c2c(n1)sc1c(N3CC4(C3)CC(F)(F)C4)ncnc12 [14h]", "CLint scaled at 1 µM (mL/min/kg)": 45}
{"compound": "Cc1nc(C)c2c(n1)sc1c(N3CC4CC4C3)ncnc12 (stereo not shown) [14i]", "CLint scaled at 1 µM (mL/min/kg)": 177}

----------
test-summary: In vivo dog iv/po PK
condition-context: male, plasma; dog (beagle), po 1.0 mg/kg, fasted

{"molecule": "Cc1nc(C)c2c(n1)sc1c(NCc3ccc(C(C)(C)O)cc3)nccc12 [22g]", "units-of-measure": "min", "Tmax": 49.8}

----------
tgt: CYP 1A2 (Homo sapiens, UniProt P05177)
Sequence (P05177 whole entry): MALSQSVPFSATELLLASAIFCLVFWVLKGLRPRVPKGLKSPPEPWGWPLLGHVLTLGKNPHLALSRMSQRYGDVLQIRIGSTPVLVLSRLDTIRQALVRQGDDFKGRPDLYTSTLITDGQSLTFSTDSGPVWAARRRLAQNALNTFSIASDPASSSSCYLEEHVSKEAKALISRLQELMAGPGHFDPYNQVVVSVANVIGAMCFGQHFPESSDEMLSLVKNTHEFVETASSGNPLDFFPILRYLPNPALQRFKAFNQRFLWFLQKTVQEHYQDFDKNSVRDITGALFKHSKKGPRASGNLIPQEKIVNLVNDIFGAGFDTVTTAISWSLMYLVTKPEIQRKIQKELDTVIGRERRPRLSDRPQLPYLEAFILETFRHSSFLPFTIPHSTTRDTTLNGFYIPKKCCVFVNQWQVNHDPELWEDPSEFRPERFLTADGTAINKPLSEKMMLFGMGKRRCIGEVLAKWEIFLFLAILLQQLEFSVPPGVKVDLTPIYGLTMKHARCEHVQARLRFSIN
measured-property: IC50 (µM)

{"compound": "Cc1nc(C)c2c(n1)sc1c(NCc3ccc(C(C)(C)O)cc3)nccc12 [22g]", "units-of-measure": "µM", "number": 23}

----------
test-summary: MDCK-MDR1 permeability assay
Assay type: in vitro ADME
condition-context: dog
measured-property: Papp B→A (×10⁻⁶ cm/s)

{"compound": "Cc1nc(C)c2c(n1)sc1c(NCc3ccc(C(C)(C)O)cc3)nccc12 [22g]", "measured-property": "Papp B→A", "units-of-measure": "×10⁻⁶ cm/s", "number": 68}

----------
test-summary: Rat plasma-to-brain level (PBL) cassette, brain distribution
Assay type: in vivo
condition-context: male, Sprague-Dawley, rat, brain / plasma, iv, 0.2 mg/kg, SD rat, 0.2 mg/kg IV, total brain to total plasma ratio
This section presents compounds with their documented Kp at 0.25 h values.

{"compound": "COc1ccc(CNc2nccc3c2sc2nc(C)nc(C)c23)cc1F [22j]", "value-relation-sign": "=", "Kp at 0.25 h": 1.69}
{"compound": "Cc1nc(C)c2c(n1)sc1c(N3CCCCC3)nccc12 [22e]", "value-relation-sign": "=", "Kp at 0.25 h": 7.77}
{"compound": "Cc1nc(C)c2c(n1)sc1c(N3CC4(C3)CC(F)(F)C4)ncnc12 [14h]", "value-relation-sign": ">", "Kp at 0.25 h": 5}
{"compound": "Cc1nc(C)c2c(n1)sc1c(N3CCC(F)(F)C3)nccc12 [22f]", "value-relation-sign": "=", "Kp at 0.25 h": 8.33}
{"compound": "Cc1nc(C)c2c(n1)sc1c(N3CCCC3)nccc12 [22k]", "value-relation-sign": "=", "Kp at 0.25 h": 18.6}
{"compound": "Cc1nc(C)c2c(n1)sc1c(N3CC4CC4C3)ncnc12 (stereo not drawn) [14i]", "value-relation-sign": ">", "Kp at 0.25 h": 5}

----------
test-summary: Binding in plasma from rat (equilibrium dialysis)
Format: in vitro ADME
condition-context: in %, read-out: rat fu,plasma
Recorded fraction unbound at 6 h, 5 µM by entry

{"compound": "Cc1nc(C)c2c(n1)sc1c(N3CC4(C3)CC(F)(F)C4)ncnc12 [14h]", "fraction unbound at 6 h, 5 µM": "> 0.05"}
{"compound": "Cc1nc(C)c2c(n1)sc1c(N3CC4CC4C3)ncnc12 (centres unmarked) [14i]", "fraction unbound at 6 h, 5 µM": "> 0.05"}

----------
This listing pairs molecules with measured Emax.
tgt: human M4 (hM4) (Homo sapiens, UniProt P08173)
Construct: expressed in transfected cells
Sequence (P08173 whole entry): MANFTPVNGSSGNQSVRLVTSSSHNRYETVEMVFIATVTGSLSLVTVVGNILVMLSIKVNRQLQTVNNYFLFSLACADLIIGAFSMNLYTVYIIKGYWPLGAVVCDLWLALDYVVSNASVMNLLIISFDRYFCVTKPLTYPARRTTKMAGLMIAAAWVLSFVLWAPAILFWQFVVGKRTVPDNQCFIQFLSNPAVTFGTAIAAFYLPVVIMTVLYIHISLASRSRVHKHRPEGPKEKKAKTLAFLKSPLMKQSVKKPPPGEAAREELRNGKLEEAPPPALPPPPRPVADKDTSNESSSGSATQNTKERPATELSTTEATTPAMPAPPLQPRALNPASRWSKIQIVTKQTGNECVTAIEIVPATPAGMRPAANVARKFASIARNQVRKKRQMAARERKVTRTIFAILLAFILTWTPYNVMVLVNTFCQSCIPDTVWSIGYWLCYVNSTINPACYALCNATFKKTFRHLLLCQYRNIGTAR
test-summary: Calcium mobilization assay, hM4/Gqi5-CHO cells, EC20 acetylcholine (PAM)
Format: cell-based
condition-context: calcium mobilization, hM4/Gqi5-CHO cells, EC20 acetylcholine; read-out: hM4 %ACh Max

{"molecule": "Cc1nc(C)c2c(n1)sc1c(N3CC4(C3)CC(F)(F)C4)ncnc12 [14h]", "tgt": "human M4 (hM4) (Homo sapiens, UniProt P08173)", "Emax [%]": 50}
{"molecule": "CCN(CC)c1nccc2c1sc1nc(C)nc(C)c12 [22a]", "tgt": "human M4 (hM4) (Homo sapiens, UniProt P08173)", "Emax [%]": 38}
{"molecule": "Cc1nc(C)c2c(n1)sc1c(C3CC3)nccc12 [23a]", "tgt": "human M4 (hM4) (Homo sapiens, UniProt P08173)", "Emax [%]": 109}
{"molecule": "COc1ccc(CNc2ncnc3c2sc2nc(C)nc(C)c23)cc1F [14k]", "tgt": "human M4 (hM4) (Homo sapiens, UniProt P08173)", "Emax [%]": 65}
{"molecule": "COc1ccc(CNc2nccc3c2sc2nc(C)nc(C)c23)cc1F [22j]", "tgt": "human M4 (hM4) (Homo sapiens, UniProt P08173)", "Emax [%]": 94}
{"molecule": "Cc1nc(C)c2c(n1)sc1c(N3CCCC3)ncc(Cl)c12 [26b]", "tgt": "human M4 (hM4) (Homo sapiens, UniProt P08173)", "Emax [%]": 61}

----------
test-summary: Binding in plasma from rat (equilibrium dialysis)
Format: in vitro ADME
condition-context: fraction unbound, equilibrium dialysis, read-out: rat fu,plasma
measured-property: fraction unbound at 6 h, 5 µM

{"compound": "Cc1nc(C)c2c(n1)sc1c(N3CCC(F)(F)C3)nccc12 [22f]", "measured-property": "fraction unbound at 6 h, 5 µM", "number": 0.043}
{"compound": "Cc1nc(C)c2c(n1)sc1c(N3CCCCC3)nccc12 [22e]", "measured-property": "fraction unbound at 6 h, 5 µM", "number": 0.019}
{"compound": "Cc1nc(C)c2c(n1)sc1c(N3CCCC3)nccc12 [22k]", "measured-property": "fraction unbound at 6 h, 5 µM", "number": 0.038}
{"compound": "COc1ccc(CNc2nccc3c2sc2nc(C)nc(C)c23)cc1F [22j]", "measured-property": "fraction unbound at 6 h, 5 µM", "number": 0.014}
{"compound": "Cc1nc(C)c2c(n1)sc1c(NCc3ccc(C(C)(C)O)cc3)nccc12 [22g]", "measured-property": "fraction unbound at 6 h, 5 µM", "number": 0.024}
{"compound": "Cc1nc(C)c2c(n1)sc1c(N3CC4CC4C3)ncnc12 (stereo not shown) [14i]", "measured-property": "fraction unbound at 6 h, 5 µM", "number": 0.048}
{"compound": "Cc1nc(C)c2c(n1)sc1c(N3CC4(C3)CC(F)(F)C4)ncnc12 [14h]", "measured-property": "fraction unbound at 6 h, 5 µM", "number": 0.132}
